- measuredTarget: T1, extracellular domain recombinant protein RAGE (11629-H08H, Sino Biological Inc.) (UniProt Q15109 23-342, labeled with RED fluorescent dye NT-647-NHS (sites not given))
- T1 construct: extracellular domain; Bought protein; also called Receptor for Advanced Glycation End products
- T1 sequence (Q15109 23-342 limits assumed): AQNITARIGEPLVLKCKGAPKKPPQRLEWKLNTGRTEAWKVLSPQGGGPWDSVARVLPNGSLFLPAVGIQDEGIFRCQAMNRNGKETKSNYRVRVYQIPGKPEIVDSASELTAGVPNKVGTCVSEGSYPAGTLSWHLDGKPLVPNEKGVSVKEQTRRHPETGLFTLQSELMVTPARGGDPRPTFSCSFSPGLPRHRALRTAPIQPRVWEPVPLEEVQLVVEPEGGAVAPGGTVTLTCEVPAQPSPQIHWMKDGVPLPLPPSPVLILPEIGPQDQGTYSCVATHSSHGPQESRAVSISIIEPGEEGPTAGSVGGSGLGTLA
- procedureSummary: MST (Microscale Thermophoresis), NT-647-labeled RAGE extracellular domain, peptide titrated 50 uM to 1.52 nM, mean of three runs
measurementLabel: Kd
Record the result as a number with its unit.

binder: DGEF (Synthetic peptide made by AnyGen Co., Ltd) [peptide of Example 2 (DGEF)]
result: 80.9 nM

In the following, a different binder is considered.
What Kd value was documented for this binder, DGEFF (Synthetic peptide made by AnyGen Co., Ltd) [peptide of Example 1 (DGEFF)] ?
76.9 nM
